molecular target: Hexokinase-4 (Homo sapiens); experiment: Inhibition of fluorescein-labeled human GK interaction with biotin-labeled human GKRP compound incubated for 20 mins prior to addition of fluorescein-labeled GK measured after 2 to 4 hrs by AlphaScreen assay
Sequence (P35557 whole entry): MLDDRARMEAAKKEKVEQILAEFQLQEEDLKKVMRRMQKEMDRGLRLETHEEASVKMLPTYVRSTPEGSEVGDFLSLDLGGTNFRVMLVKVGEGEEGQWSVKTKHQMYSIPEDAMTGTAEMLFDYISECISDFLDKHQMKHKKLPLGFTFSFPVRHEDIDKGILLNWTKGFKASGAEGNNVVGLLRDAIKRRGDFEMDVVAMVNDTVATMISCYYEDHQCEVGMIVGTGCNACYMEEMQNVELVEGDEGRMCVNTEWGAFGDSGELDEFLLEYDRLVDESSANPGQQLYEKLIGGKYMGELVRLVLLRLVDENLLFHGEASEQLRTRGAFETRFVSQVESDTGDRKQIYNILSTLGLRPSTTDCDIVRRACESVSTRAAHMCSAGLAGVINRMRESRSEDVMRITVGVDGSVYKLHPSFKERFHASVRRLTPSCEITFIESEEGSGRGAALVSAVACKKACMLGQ
observation type: IC50 (nM)

Below, each entry is followed by its recorded IC50 result.
>  <chem smiles>
Cc1ccc(-c2cc(C(O)(C(F)(F)F)C(F)(F)F)cnc2N2CCN(S(=O)(=O)c3ccc(N)nc3)CC2)cn1

>  <measured on>
Hexokinase-4 (Homo sapiens)

>  <unit symbol>
nM

>  <IC50>
40

$$$$
>  <chem smiles>
Nc1ccc(S(=O)(=O)N2CCN(c3ncc(C(O)(C(F)(F)F)C(F)(F)F)cc3C#CCCO)CC2)cn1

>  <measured on>
Hexokinase-4 (Homo sapiens)

>  <unit symbol>
nM

>  <IC50>
17

$$$$
>  <chem smiles>
Nc1ccc(S(=O)(=O)N2CCN(c3ncc(C(O)(C(F)(F)F)C(F)(F)F)cc3-c3cccnc3)CC2)cn1

>  <measured on>
Hexokinase-4 (Homo sapiens)

>  <unit symbol>
nM

>  <IC50>
5

$$$$
>  <chem smiles>
Nc1ccc(S(=O)(=O)N2CCN(c3ncc(C(O)(C(F)(F)F)C(F)(F)F)cc3-c3ccncc3)CC2)cn1

>  <measured on>
Hexokinase-4 (Homo sapiens)

>  <unit symbol>
nM

>  <IC50>
21

$$$$
>  <chem smiles>
Nc1ccc(S(=O)(=O)N2CCN(c3ncc(C(O)(C(F)(F)F)C(F)(F)F)cc3Cl)CC2)cn1

>  <measured on>
Hexokinase-4 (Homo sapiens)

>  <unit symbol>
nM

>  <IC50>
201

$$$$

a = Nc1ccc(S(=O)(=O)N2CCN(c3ncc(C(O)(C(F)(F)F)C(F)(F)F)cc3-c3ccc4c(c3)CC(=O)N4)CC2)cn1
b = COc1cncc(-c2cc(C(O)(C(F)(F)F)C(F)(F)F)cnc2N2CCN(S(=O)(=O)c3ccc(N)nc3)CC2)c1
**Q:** Hi there, can you help? I need to know whether a or b has lower measured IC50. Please identify the chosen entry by its label.
**A:** b
